- Test protocol: Half life in rat
- Assay type: ADME, organism-based
- Run parameters: in vivo
Measurement name: half-life (h)

>  <Mol smiles>
O=C(NCCc1ccccc1Cl)c1cc(-n2ncc(=O)[nH]c2=O)ccc1Cl

>  <Scale unit>
h

>  <half-life>
3

$$$$

1 = O=C(NCC12CC3CC(CC(C3)C1)C2)c1cc(Cl)ccc1Cl
2 = O=C(CC12CC3CC(CC(C3)C1)C2)Nc1ccccc1
Q) Between 1 and 2 , whose recorded half-life is greater? Response format: the label of the selected entry.
A) 2
(2: 1 h, 1: 0.5 h)

---

- Target or system: P2X purinoceptor 7 (Homo sapiens, UniProt Q99572)
- Test protocol: Antagonist activity at human P2X7 receptor expressed in human U373 cells assessed as inhibition of BzATP-induced Yo-Pro uptake
- Type: functional, cell-based, U-373MG ATCC
Measurement name: IC50 (nM)

Observe how each entry below is paired with its result.
>  <Mol smiles>
c1ccc([C@H]2N=C(C3Cc4ccccc4C3)N[C@H]2c2ccccc2)cc1

>  <IC50 / nM>
31.6

$$$$
>  <Mol smiles>
Cc1cccc([C@H]2NC(NCc3cccc(F)c3)=N[C@H]2c2cccc(C)c2)c1

>  <IC50 / nM>
126

$$$$
>  <Mol smiles>
Cc1ccccc1CCC1=N[C@H](c2ccccc2)[C@H](c2ccccc2)N1

>  <IC50 / nM>
63.1

$$$$
>  <Mol smiles>
C[C@@]1(c2cccc(F)c2)N=C(NCc2cccc(F)c2)N[C@@H]1c1cccc(F)c1

>  <IC50 / nM>
39.8

$$$$
>  <Mol smiles>
Fc1ccc(CC2=N[C@H](c3ccccc3)[C@H](c3ccccc3)N2)cc1

>  <IC50 / nM>
79.4

$$$$

a = Fc1cccc(COC2=N[C@H](c3ccccc3)[C@H](c3ccccc3)N2)c1
b = Clc1cccc(CCC2=N[C@H](c3ccccc3)[C@H](c3ccccc3)N2)c1
Q) Between a and b , whose recorded IC50 is greater? Response format: the label of the selected entry.
A) a
(a: 200 nM, b: 126 nM)

---

- Test protocol: Metabolic stability in rat hepatocytes assessed as intrinsic clearance assessed per million cells
- Assay type: ADME, cell-based, Liver, Hepatocyte
Measurement name: hepatocyte CLint

Observe how each entry below is paired with its result.
>  <Mol smiles>
O=C(CC12CC3CC(CC(C3)C1)C2)Nc1ccccc1

>  <Measurement name>
hepatocyte CLint

>  <Endpoint value>
5 µL/min/1e6 cells

$$$$
>  <Mol smiles>
O=C(NCC12CC3CC(CC(C3)C1)C2)c1ccccc1Cl

>  <Measurement name>
hepatocyte CLint

>  <Endpoint value>
> 100 µL/min/1e6 cells

$$$$

Now for the compound whose hepatocyte CLint we want.
Data point: O=C(NCC12CC3CC(CC(C3)C1)C2)c1cc(Cl)ccc1Cl ; hepatocyte CLint = > 100 µL/min/1e6 cells

---

- Target or system: P2X purinoceptor 7 (Homo sapiens)
- Sequence (Q99572 whole entry): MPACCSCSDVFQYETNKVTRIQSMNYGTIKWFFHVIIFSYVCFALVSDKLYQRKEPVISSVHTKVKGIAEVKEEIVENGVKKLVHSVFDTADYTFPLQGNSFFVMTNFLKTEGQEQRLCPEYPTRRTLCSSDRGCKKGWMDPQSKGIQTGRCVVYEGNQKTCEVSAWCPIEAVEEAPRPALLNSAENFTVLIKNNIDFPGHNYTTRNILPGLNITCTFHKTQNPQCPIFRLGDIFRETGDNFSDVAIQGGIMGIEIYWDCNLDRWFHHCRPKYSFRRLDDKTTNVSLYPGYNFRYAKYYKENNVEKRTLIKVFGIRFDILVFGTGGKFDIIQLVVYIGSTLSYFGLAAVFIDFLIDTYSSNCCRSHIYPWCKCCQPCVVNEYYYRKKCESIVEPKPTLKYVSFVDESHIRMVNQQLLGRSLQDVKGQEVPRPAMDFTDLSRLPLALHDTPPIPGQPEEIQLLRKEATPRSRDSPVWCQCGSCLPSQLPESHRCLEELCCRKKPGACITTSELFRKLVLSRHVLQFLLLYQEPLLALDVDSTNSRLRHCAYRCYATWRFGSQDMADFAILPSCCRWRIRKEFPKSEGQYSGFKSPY
- Test protocol: Antagonist activity at human P2X7 receptor expressed in human U373 cells assessed as inhibition of BzATP-induced Yo-Pro uptake
- Assay type: functional, cell-based, U-373MG ATCC
pIC50: −log10 of the molar value.
Measurement name: pIC50

>  <Compound>
Cc1ccccc1CC1=N[C@H](c2ccccc2)[C@H](c2ccccc2)N1

>  <pIC50>
6.50

$$$$

A = Fc1cccc(CNC2=N[C@@H](c3ccccc3Cl)[C@@H](c3ccccc3Cl)N2)c1
B = CC(C)(CC1=N[C@H](c2ccccc2)[C@H](c2ccccc2)N1)c1ccccc1
C = CC(CC1=N[C@H](c2ccccc2)[C@H](c2ccccc2)N1)c1ccccc1 (stereo not given in full)
D = Fc1cccc(CC2=N[C@H](c3ccccc3)[C@H](c3ccccc3)N2)c1
Q) Order by pIC50, ascending. Arrange the labels as the request states and list them.
A) A, D, C, B

---

- Test protocol: Volume of distribution at steady state in rat
- Format: ADME, organism-based
- Run parameters: in vivo, read-out: Vdss
Measurement name: Vd (L/kg)

>  <Mol smiles>
O=C(NCC12CC3CC(CC(C3)C1)C2)c1cc(Cl)ccc1Cl

>  <Endpoint value>
3

$$$$

A = O=C(NCCc1ccccc1Cl)c1cc(-n2ncc(=O)[nH]c2=O)ccc1Cl
B = O=C(CC12CC3CC(CC(C3)C1)C2)Nc1ccccc1
Q) Between A and B , whose recorded Vd is greater? Response format: the label of the selected entry.
A) B

---

- Target or system: P2X purinoceptor 7 (Homo sapiens)
- Test protocol: Antagonist activity at P2X7 receptor in human THP1 cells assessed as inhibition of BzATP-induced ethidium uptake
- Assay type: functional, cell-based, THP-1
- Run parameters: thp-1
Measurement name: pIC50

Observe how each entry below is paired with its result.
>  <Compound>
Cc1cccc(C)c1NC(=O)CN1CC2CCC(C1)N2c1ncnc2sccc12

>  <pIC50>
>= 5

$$$$
>  <Compound>
O=C(NCC12CC3CC(CC(C3)C1)C2)c1cc(N2CCNCC2)ncc1Cl

>  <pIC50>
> 5

$$$$
>  <Compound>
CC(C)NC(=O)c1cnc(N2CCC(N3C(=O)OCc4ccccc43)CC2)c(Cl)c1

>  <pIC50>
>= 4.5

$$$$
>  <Compound>
O=C(CNc1ccc(F)c(F)c1)Nc1cc(OC2CCNCC2)ccc1Cl

>  <pIC50>
> 4.5

$$$$

Data point: CC(CO)NC(=O)c1cnc(N2CCC(N3C(=O)OCc4ccccc43)CC2)nc1C(F)(F)F (stereo not given) ; pIC50 = >= 4.5

---

- Test protocol: Oral bioavailability in rat
- Type: ADME, organism-based
- Run parameters: in vivo
Measurement name: bioavailability (%)

>  <Molecule>
Cc1ccc2c(=O)n([C@H](C)CO)ccc2c1NC(=O)Cc1ccc(C(F)(F)F)c(F)c1

>  <bioavailability [%]>
25

$$$$

1 = Cc1ccc2c(N/C(=N\C#N)N3CCN(C(=O)c4ccc(Cl)cc4)CC3C(C)C)cccc2n1 (centres undefined)
2 = C[C@H](CO)n1ccc2c(NC(=O)Cc3ccc(Cl)c(C(F)(F)F)c3)cccc2c1=O
Q) Would you mind telling me which has the lower recorded bioavailability between 1 and 2 ? Response format: the label of the selected entry.
A) 1

---

- Target or system: UniProt Q99572
- Test protocol: Inhibition of human P2X7 receptor assessed as inhibition of BzATP-induced IL1-beta release
Measurement name: IC50 (nM)
Report as a plain number; the unit nM is understood.

Data point: Fc1cccc(CNC2=N[C@@H](c3cccc(F)c3)[C@@H](c3cccc(F)c3)N2)c1 ; IC50 = 1260

---

- Test protocol: Half life in Sprague-Dawley rat
- Format: ADME, organism-based
- Run parameters: in vivo
Measurement name: half-life (h)
Report as a plain number; the unit h is understood.

Data point: COc1ccc(CC(=O)NC(N/C(=N/C#N)Nc2cccc3ncccc23)C(C)(C)C)cc1OC (stereo unspecified) ; half-life = 4

---

- Target or system: P2X purinoceptor 7 (Homo sapiens, UniProt Q99572)
- Sequence (Q99572 whole entry): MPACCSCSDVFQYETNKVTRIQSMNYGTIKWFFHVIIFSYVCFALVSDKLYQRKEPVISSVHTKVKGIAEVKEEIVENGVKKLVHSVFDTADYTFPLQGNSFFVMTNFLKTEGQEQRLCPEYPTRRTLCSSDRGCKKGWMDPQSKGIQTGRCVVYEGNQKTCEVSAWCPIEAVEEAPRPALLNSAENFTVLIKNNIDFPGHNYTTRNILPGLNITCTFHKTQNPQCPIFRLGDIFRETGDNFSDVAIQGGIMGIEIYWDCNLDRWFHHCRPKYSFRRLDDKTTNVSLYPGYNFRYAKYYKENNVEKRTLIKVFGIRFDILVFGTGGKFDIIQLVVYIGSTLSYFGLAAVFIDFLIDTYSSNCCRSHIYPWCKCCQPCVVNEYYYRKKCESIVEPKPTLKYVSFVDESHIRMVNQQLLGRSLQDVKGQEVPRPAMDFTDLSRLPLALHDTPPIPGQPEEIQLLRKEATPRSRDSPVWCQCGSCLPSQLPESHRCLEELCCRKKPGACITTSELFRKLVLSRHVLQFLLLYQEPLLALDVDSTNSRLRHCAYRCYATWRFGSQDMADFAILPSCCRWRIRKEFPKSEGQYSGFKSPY
- Test protocol: Antagonist activity at P2X7 receptor in human THP1 cells assessed as inhibition of BzATP-induced ethidium uptake
- Format: functional, cell-based, THP-1
Measurement name: IC50 (nM)

>  <Molecule>
Cc1ccccc1Cn1cnnc1-c1cccc(Cl)c1Cl

>  <Target or system>
P2X purinoceptor 7 (Homo sapiens, UniProt Q99572)

>  <Scale unit>
nM

>  <IC50>
79.4

$$$$
>  <Molecule>
O=C(Cc1ccc(C(F)(F)F)c(F)c1)Nc1cccc2c1CCN(C(=O)[C@H]1CCCN1)C2

>  <Target or system>
P2X purinoceptor 7 (Homo sapiens, UniProt Q99572)

>  <Scale unit>
nM

>  <IC50>
79.4

$$$$
>  <Molecule>
CCCCC(CC)CNC(=O)c1cc(-n2ncc(=O)[nH]c2=O)ccc1Cl (stereo unspecified)

>  <Target or system>
P2X purinoceptor 7 (Homo sapiens, UniProt Q99572)

>  <Scale unit>
nM

>  <IC50>
794

$$$$
>  <Molecule>
Clc1cccc(-n2cnnc2NCc2cccnc2N2CCCC2)c1Cl

>  <Target or system>
P2X purinoceptor 7 (Homo sapiens, UniProt Q99572)

>  <Scale unit>
nM

>  <IC50>
15.8

$$$$
>  <Molecule>
C[C@@H](C(N)=O)n1ccc2c(NC(=O)CC34CC5CC(CC(C5)C3)C4)c(Cl)ccc2c1=O

>  <Target or system>
P2X purinoceptor 7 (Homo sapiens, UniProt Q99572)

>  <Scale unit>
nM

>  <IC50>
0.0794

$$$$
>  <Molecule>
O=C(CC12CC3CC(CC(C3)C1)C2)Nc1cccc2nc(NCCCO)ccc12

>  <Target or system>
P2X purinoceptor 7 (Homo sapiens, UniProt Q99572)

>  <Scale unit>
nM

>  <IC50>
7.94

$$$$
>  <Molecule>
Clc1cccc(-c2nnnn2Cc2c(Cl)cccc2Cl)c1Cl

>  <Target or system>
P2X purinoceptor 7 (Homo sapiens, UniProt Q99572)

>  <Scale unit>
nM

>  <IC50>
126

$$$$
>  <Molecule>
O=C(NCC1(O)CCCCCC1)c1cc(-n2ncc(=O)[nH]c2=O)ccc1Cl

>  <Target or system>
P2X purinoceptor 7 (Homo sapiens, UniProt Q99572)

>  <Scale unit>
nM

>  <IC50>
100

$$$$
>  <Molecule>
CS(=O)(=O)NC(=O)NCCCc1ccc2c(C(=O)NCC3CCCCC3)c(Cl)ccc2n1

>  <Target or system>
P2X purinoceptor 7 (Homo sapiens, UniProt Q99572)

>  <Scale unit>
nM

>  <IC50>
501

$$$$
>  <Molecule>
CN(CCO)CCc1cc(C(=O)NCC23CC4CC(CC(C4)C2)C3)c(Cl)cn1

>  <Target or system>
P2X purinoceptor 7 (Homo sapiens, UniProt Q99572)

>  <Scale unit>
nM

>  <IC50>
15.8

$$$$

I = O=C(CC1CCCCC1)Nc1c(Cl)ccc2nc(NCCCO)ccc12
II = CNC[C@@H](O)Cc1ccc(Cl)c(C(=O)NCC23CC4CC(CC(C4)C2)C3)c1
III = O=C(CC1CCCCCC1)Nc1cccc2c(=O)n([C@H]3CCNC3)ccc12
IV = Cc1ccc2nc(CCNCCCO)ccc2c1NC(=O)CC12CC3CC(CC(C3)C1)C2
V = C=C1C2(C(=O)NNc3ccccc3)CCC(C2)C1(C)C (stereo unspecified)
Q) Order by IC50, ascending. Arrange the labels as the request states and list them.
A) III, II, IV, I, V
(III: 3.16 nM, II: 10 nM, IV: 15.8 nM, I: 25.1 nM, V: 50.1 nM)
